# EXPERIMENTAL TARGET: DDR1 (Homo sapiens, UniProt Q08345)
# Sequence (Q08345 19-913): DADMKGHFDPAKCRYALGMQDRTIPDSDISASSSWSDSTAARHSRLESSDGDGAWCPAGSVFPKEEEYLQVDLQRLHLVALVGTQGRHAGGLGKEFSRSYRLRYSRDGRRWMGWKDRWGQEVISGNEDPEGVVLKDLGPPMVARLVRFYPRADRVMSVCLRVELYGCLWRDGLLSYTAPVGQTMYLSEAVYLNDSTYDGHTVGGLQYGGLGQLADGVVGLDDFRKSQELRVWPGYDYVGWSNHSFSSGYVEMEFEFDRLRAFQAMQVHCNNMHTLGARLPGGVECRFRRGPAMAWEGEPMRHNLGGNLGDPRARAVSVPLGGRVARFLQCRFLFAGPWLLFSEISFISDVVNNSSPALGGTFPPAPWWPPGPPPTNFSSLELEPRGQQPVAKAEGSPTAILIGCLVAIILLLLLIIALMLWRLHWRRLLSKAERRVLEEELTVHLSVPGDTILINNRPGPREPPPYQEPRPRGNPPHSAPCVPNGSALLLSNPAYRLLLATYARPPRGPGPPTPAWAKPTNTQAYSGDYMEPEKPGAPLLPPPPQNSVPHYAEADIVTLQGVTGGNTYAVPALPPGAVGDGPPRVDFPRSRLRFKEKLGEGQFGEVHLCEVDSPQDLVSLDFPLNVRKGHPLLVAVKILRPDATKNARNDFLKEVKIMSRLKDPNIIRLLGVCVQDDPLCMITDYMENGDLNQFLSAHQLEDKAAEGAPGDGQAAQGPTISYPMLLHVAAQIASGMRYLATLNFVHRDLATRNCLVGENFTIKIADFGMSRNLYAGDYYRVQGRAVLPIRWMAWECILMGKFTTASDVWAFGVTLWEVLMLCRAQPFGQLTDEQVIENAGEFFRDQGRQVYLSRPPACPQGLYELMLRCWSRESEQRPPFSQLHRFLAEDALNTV
# MEASUREMENT NOTES: Degradation of DDR1 in tumor cell MKN45 (Western blot)
# Assay type: cell-based
# Parameters: The degradation activity of the compounds against DDR1 in the MKN45 cell line; endogenous in cells; host or cells: MKN45
# APPLIED CONDITIONS: MKN-45, maximum degradation percentage, MKN45 cells, 24 hours
PROPERTY: Dmax

Examples with answers:
{"MOLECULE": "COc1cc2nccc(Oc3ccc(NC(=O)C4(C(=O)Nc5ccc(F)cc5)CC4)cc3)c2cc1OC [cabozantinib, reference compound]", "OBSERVED MEASUREMENT": "< 50%"}
{"MOLECULE": "COc1cc2c(Oc3ccc(NC(=O)C4(C(=O)Nc5ccc(F)cc5)CC4)cc3)ccnc2cc1COCCN1CCN(CCNc2cccc3c2C(=O)N(C2CCC(=O)NC2=O)C3=O)CC1 (stereo not shown)", "OBSERVED MEASUREMENT": "75 to 85%"}

API: value(readout=Dmax, system=DDR1 (Homo sapiens, UniProt Q08345)) for record COc1cc2c(Oc3ccc(NC(=O)C4(C(=O)Nc5ccc(F)cc5)CC4)cc3)ccnc2cc1N1CCC(CN2C3CC2CN(CCC=Cc2cc4c(cn2)C(=O)N(C2CCC(=O)NC2=O)C4)C3)CC1 (stereo not shown)
65 to 75%

Item: "Cc1ncsc1-c1ccc(CNC(=O)[C@@H]2C[C@@H](O)CN2C(=O)[C@@H](NC(=O)CCN2CCC(COc3cnc(-c4cccc(Cn5nc(-c6cccc(C#N)c6)ccc5=O)c4)nc3)CC2)C(C)(C)C)cc1"
65 to 75%

Item: COc1cc2c(Oc3ccc(NC(=O)C4(C(=O)Nc5ccc(F)cc5)CC4)cc3)ccnc2cc1NC(=O)CCCN1CCC(CN2CCN(c3ccc(NC4CCC(=O)NC4=O)cc3)CC2)CC1 (stereo not shown) [TPD5752m]
> 85%

Item: O=C1CCC(N2Cc3c(NC(=O)CCN4CC5CC(C4)N5CC4CCN(c5cc6nccc(Oc7ccc(NC(=O)C8(C(=O)Nc9ccc(F)cc9)CC8)cc7)c6cc5OC(F)(F)F)CC4)cccc3C2=O)C(=O)N1 (stereo not shown)
75 to 85%

Item: O=C1CCC(N2Cc3cc(C#CCCN4CC5CC(C4)N5CC4CCN(c5cc6nccc(Oc7ccc(NC(=O)C8(C(=O)Nc9ccc(F)cc9)CC8)cc7)c6cc5F)CC4)ccc3C2=O)C(=O)N1 (stereo not shown)
65 to 75%

The measurements presented in this section are drawn from patent US20240374738A1.
